# Target under test: T1, SLK peptide complexed with HLA-A*02:01 on T2 cells (human)
# T1 construct: whole, on cells
# Procedure details: flow cytometry, peptide-loaded T2 cells;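 further: binding of single-chain Fv antibody constructs, raised in XenoMouse, to peptide-pulsed T2 cells measured by flow cytometry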
Can you tell me Signal/background for the items I'm about to list?
Just the number, please, no unit after it.

## Input GET /values?readout=Signal/background&item= 18089-D11 (scFv, scFv in bacterial lysate, detected with anti-Flag M2) scFv: EVQLLESGPVLVKPTQTLTLTCTFSGFSFTTHKMGVDWIRQPPGKALEWLALIYWNDDKRYNPSLQSRLTITKDTSKNQVVLTMTNMDPVDTATYYCAYRRYNWNYENWFDPWGQGTLVTVSSGGGGSGGGGSGGGGSELVMTQSPSSLSASVGDRVTITCRASQSISNYFNWYQQKPGKAPKLLIYAASSLQSGVPSRFSGSGSGTDFTLTISSLQPEDFATYYCQQSYITPFTFGGGTKLEIK
## Output 1.2

## Input Next entry: 18182-H9 (scFv, scFv in bacterial lysate, detected with anti-Flag M2) scFv: EVQLLESGGGLVQPGGSLRLSCAASGFTFSSHAMSWVRQAPGKGLEWVSAISGSGGGTYYADSVKARFTISRDNSKNTLYLQMNSLRAEDTAVYYCATGKGVHLGFDYWGQGTLVTVSSGGGGSGGGGSGGGGSELVLTQPPSVSVAPGQTARITCGGNNIGSKSVHWHQQKPGQAPVLVVYDDNDRPSGIPERFSGSNSGNTATLTISRVEAGDEADFYCQVWDSSSDHVVFGGGTKLTVL
## Output 1.2

## Input Next entry: 18181-G10 (scFv, scFv in bacterial lysate, detected with anti-Flag M2) scFv: EVQLLESGPGLVKPSQTLSLTCTVSGDSISSNPYYWSWIRQLPGKGLEWIGYISYSGSTFYNPSLKSRVTISVDTSKNQFSLNLTSVTAADTAVYYCARDRLWFGVLNYYYGMDVWGLGTTVTVSSGGGGSGGGGSGGGGSELVMTQSPLSLPVTPGEPASISCRSSQSLLHSTGYNYVDWYLQKPGQSPQLLIYLGSNRASGVPDRFSGSGSGTDFTLKISRVEAEDVGFYYCMQALQTPRTFGQGTKVEIK
## Output 1.1

## Input Next entry: 18179-E1 (scFv, scFv in bacterial lysate, detected with anti-Flag M2) scFv: EVQLLESGGGLVQPGGSLRLSCAASGFTFSNAWMSWVRQAPGKGLEWVGRIKGNTYGGTTDYAAPVKGRFTISRDDSKNTLYLQMNSLKTEDTAVYYCTTPSYSGSYYNYFSVMDVWGQGTTVTVSSGGGGSGGGGSGGGGSELVMTQSPSSLSASVGDRVTITCRTSQSISSYLNWYQQKPGRAPKLLIFAASSLQGGVPSRFSGSGSGTDFTLTISSLQPEDFATYYCQQTYSMPFTFGPGTKVDIK
## Output 1.1

## Input Next entry: 18081-E7 (scFv, scFv in bacterial lysate, detected with anti-Flag M2) scFv: EVQLLESGPGLVKPSETLSLTCTVSGDSISSSRYYWGWIRQPPGKGLEWIGSIYYSGSTYYNPSLKSRVTISVDTSKNQFSLKLSSVTAADTAVYYCARGIFGVITYFDYWGQGTLVTVSSGGGGSGGGGSGGGGSELVMTQTPDSLAVSLGERATINCKSSQSVLYSSNNKNYLAWYQQKPGQPPKLLIYWASTRESGVPDRFSGSGSGTDFTLTISSLQAEDVAVYYCQQYYSTPLTFGGGTKVEIK
## Output 1.4

## Input Next entry: 18182-H12 (scFv, scFv in bacterial lysate, detected with anti-Flag M2) scFv: EVQLLESGGGLVQPGGSLRLSCAASGFTFSSYAMSWVRQAPGKGLEWVSTISGSGGGTYYADSVKGRFTISRDNSKNTLYLQMNSLRAEDTAVYYCATGKGVHLGFDYWGQGTLVTVSSGGGGSGGGGSGGGGSELMLTQPHSVSVAPGQTARITCGGNNIGSKSVHWYQQKPGQAPVLVVYDDNDRPSGIPERFSGSNFGNTATLIISRVEAGDEADYYCQVWDSSSDHVVFGGGTKLTVL
## Output 1

## Input Next entry: 18089-C9 (scFv, scFv in bacterial lysate, detected with anti-Flag M2) scFv: EVQLLESGPTLVKPTQTLTLTCTFSGFSFTTHKMGVDWIRQPPGKALEWLALIYWNDDKRYSPSLQSRLTITKDTSKNQVVLTMTNMDPVDTATYYCAYRRYNWNYENWFDPWGQGTLVTVSSGGGGSGGGGSGGGGSELQMTQSPSSLSASVGDRVTITCRASQFISSYLNWYQQKPGKAPKLLIYAASSLQSGVPSRFSGRGSGTDFTLTISSLQPEDFATYYCQQSYSTPFTFGPGTKVEIK
## Output 1.1

## Input Next entry: 18179-H7 (scFv, scFv in bacterial lysate, detected with anti-Flag M2) scFv: EVQLLESGGGLVQPGGSLRLSCAASGFTFSNAWMSWVRQAPGKGLEWVGRIKSKTYGGTTDYAAPVKGRFTISRDDSKNTLYLQMNSLKTEDTAVYYCTTPSYSGSYYNYFSVMDVWGQGTTVTVSSGGGGSGGGGSGGGGSELQMTQSPSSLSASVGDRVTITCRTSQSISSYLNWFQQKPGKAPKLLIFAASSLQSGVPSRFSGSGSGTDFTLTISSLQPEDFATYYCQQSYSSPFTFGPGTKVEIK
## Output 0.9

## Input Next entry: 18179-G12 (scFv, scFv in bacterial lysate, detected with anti-Flag M2) scFv: EVQLLESGAEVKKPGASVKVSCKASGYTFTRNGLSWVRQAPGQGLEWMGWISGYNGDTNYAQKLQGRGTMTTDTSTSTAYMELRSLRSDDTAVYYCARGRATFDYWGQGTLVTVSSGGGGSGGGGSGGGGSELVMTQSPSSLSASVGDRVTITCRASQGISNYLAWYQQKPGKVPKLLISAASTLQSGVPSRFSGSGSGTDFTLTISSLQPEDVATYYCQKYNSAPFTFGPGTKLEIK
## Output 1.1

## Input Next entry: 18181-E2 (scFv, scFv in bacterial lysate, detected with anti-Flag M2) scFv: EVQLLESGPGLVKPSQTLSLTCTVSGDSISSNPYYWSWIRQHPGKGLEWIGYISHSGSTYYNPSLKSRVTISVDTSKNQFSLNLTSVTAADTAVYYCARDRLWFGVLNYYYGMDVWGLGTTVTVSSGGGGSGGGGSGGGGSELVMTQSPLSLPVTPGEPASISCRSSQSLLHSSGYNYLDWYLQKPGQSPQLLIYLGSNRASGVPDRFSGSGSGTDFTLKISKVEAEDVGVYYCMQALQTPRTFGQGTKVDIK
## Output 1.1

The origin of these recorded values is patent US20220017636A1.
